B1: Glucocorticoid receptor, residues 419 to 494; numbered along this chain, P04150 (parent)
chain: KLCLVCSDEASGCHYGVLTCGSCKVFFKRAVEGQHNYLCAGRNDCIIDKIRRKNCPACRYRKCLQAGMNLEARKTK

- Variants of: B1
- PROCEDURE SUMMARY: abundance fitness (aPCA) (normalised: wild type 0, dead -1); higher = more abundant; growth selection in yeast, the domain comes from the species named
- EXPERIMENTAL SETUP: Homo sapiens
Decide using abundance fitness: a value greater than or equal to -0.1 is class 1, a smaller one is class 0.

Exercise: Given the entry `R59H` , answer whether its abundance fitness meets or surpasses -0.1.
Key: class 1

Exercise: Same lookup for `A57G` , please.
Key: class 1

Exercise: Same lookup for `H14C` , please.
Key: class 0

Exercise: Same lookup for `L38D` , please.
Key: class 1

Exercise: Same lookup for `S7W` , please.
Key: class 0

Exercise: Same lookup for `Y15T` , please.
Key: class 1

Exercise: Same lookup for `C63S` , please.
Key: class 0

Exercise: Same lookup for `I46H` , please.
Key: class 1

Exercise: Same lookup for `G12C` , please.
Key: class 0

Exercise: Same lookup for `D8T` , please.
Key: class 0

Exercise: Same lookup for `G16H` , please.
Key: class 0

Exercise: Same lookup for `G16E` , please.
Key: class 0

Exercise: Same lookup for `T75W` , please.
Key: class 1

Exercise: Same lookup for `N54P` , please.
Key: class 0

Exercise: Same lookup for `R42S` , please.
Key: class 1

Exercise: Same lookup for `L18E` , please.
Key: class 1

Exercise: Same lookup for `K24L` , please.
Key: class 0

Exercise: Same lookup for `N36G` , please.
Key: class 1

Exercise: Same lookup for `G67T` , please.
Key: class 0

Exercise: Same lookup for `L4G` , please.
Key: class 1

Exercise: Same lookup for `S11M` , please.
Key: class 1

Exercise: Same lookup for `N43Y` , please.
Key: class 1
